System: SNB-75 CNS
Experiment: NCI tumour cell line growth inhibition, 48 h
endpoint.name: TGI

Worked cases, TGI given:
[
  {
    "compound": "c1ccc2c(CNCCN3CCNCC3)c3ccccc3c(CNCCN3CCNCC3)c2c1",
    "TGI": "> 100 µM"
  },
  {
    "compound": "C/C(=N\\NC(=S)Nc1ccc([N+](=O)[O-])cc1)c1nc2ncccc2[nH]1",
    "TGI": "4.1 µM"
  },
  {
    "compound": "Oc1cccnc1/C=N/OCc1ccccc1",
    "TGI": "> 100 µM"
  },
  {
    "compound": "COC1=C(OC)[C@]2(OC)c3c(O)c(OC)c4c(c3O[C@@]23O[C@@H](c2ccccc2)CC=C3C1=O)[C@@H](OC)C[C@H](c1ccccc1)O4",
    "TGI": "2.79 µM"
  },
  {
    "compound": "COc1ccc(NC/C=C/C(=C/COC(C)=O)OC(C)=O)cc1",
    "TGI": "20.5 µM"
  },
  {
    "compound": "Cc1c(C2=NN=C(N=Nc3c(O)cccc3O)/C2=C/c2ccccc2)c(=O)n(-c2ccccc2)n1C",
    "TGI": "> 100 µM"
  }
]

# batch: return TGI for each of the 3 compounds below
1. O=c1n(-c2ccccc2)c(=O)n2c(-c3ccccc3)c(-c3ccccc3)n12
2. COc1cc(/C=C/C(=O)O[C@H]2[C@H](O[C@@H]3O[C@@H](C)[C@H](O)[C@@H](O)[C@H]3O)[C@@H](O)[C@H](OCCc3ccc(O)c(O)c3)O[C@@H]2COC2OCC(O)(CO)C2O)ccc1O (some centres undefined)
3. c1n[nH]cc1C12C3C4C5C3C1C5C42 (centres undefined)

Result block:
["> 100 µM", "> 100 µM", "> 100 µM"]

###

Tested on: SNB-78 CNS
Experiment: NCI tumour cell line growth inhibition, 48 h
Task for the reader: assign each of the following molecules its reported TGI.

The cases that follow already have their TGI on record.
[
  {
    "molecule": "CN(C)CC(/C(Cc1ccccc1)=N\\NC(=S)NN)c1ccccc1 (stereo not drawn)",
    "TGI": "> 100 µM"
  },
  {
    "molecule": "CC(C)N(C(=O)C12C3C4C1C1C2C3C41C(=O)N(C(C)C)C(C)C)C(C)C (stereo not drawn)",
    "TGI": "> 50 µM"
  },
  {
    "molecule": "C=C1C=CC2(Br)OC3CC(C)(Cl)C(Br)CC13C2(C)C (stereo not drawn)",
    "TGI": "61.7 µM"
  }
]

Batch request: TGI per item, same order as input.
1. CC(N)CC(=O)O (stereo not drawn)
2. COc1ccc(/C=C/c2cc(OC)c(OCc3ccccc3)c(OC)c2)cc1
3. Oc1cccnc1/C=N/OCc1ccccc1
4. COc1cc(/C=C/C2=C(C#N)C(=O)OC2(C)C)ccc1O

Result block:
1. > 5000 µM
2. > 100 µM
3. > 100 µM
4. > 100 µM

Answer for every listed entry: what is its TGI? The entries follow.
1. Nc1nc2c(ncn2CCCC(c2ccccc2)P(=O)(O)O)c(=O)[nH]1 (stereo not drawn)
2. COCCOCOC(C)(C)[C@H](CCO)O[Si](c1ccccc1)(c1ccccc1)C(C)(C)C
3. C#CCNC(=O)NC(CCCCNC(=O)OCc1ccccc1)C(=O)OCc1ccccc1 (stereo not drawn)
4. CN(C)C(F)=PC(F)(F)F (stereo not drawn)
5. CC(C)=CCC/C(C)=C/CCC1(C)C=Cc2c(c3ccccc3oc2=O)O1 (stereo not drawn)
6. O=C(CC(=O)c1ccccc1)C(=O)Nc1ccc(Cl)cc1

Result block:
> 100 µM
35.1 µM
80.1 µM
> 100 µM
> 92.8 µM
> 100 µM

Data provenance is PubChem BioAssay (NCI).
